Hello, the source for this data is PubChem BioAssay (NCI), in case you need it.

Measured TGI of individual entries
Tested on: KM12 colon
Assay: NCI tumour cell line growth inhibition, 48 h

>  <molecule>
COc1ccc(OC)c(CSc2ccc(OC)c(OC)c2)c1

>  <test.system>
KM12 colon

>  <TGI>
> 100 µM

$$$$
>  <molecule>
NC1=CC(=O)c2cccnc2C1=O

>  <test.system>
KM12 colon

>  <TGI>
13.1 µM

$$$$
>  <molecule>
COC1C(CO)OC(n2c3ccccc3c3c4c(c5c6ccccc6[nH]c5c32)C(=O)NC4=O)C(O)C1O (stereo not drawn)

>  <test.system>
KM12 colon

>  <TGI>
0.55 µM

$$$$
>  <molecule>
CC1(C)CC(=O)C(/C=N/C(N)=S)=C(O)C1

>  <test.system>
KM12 colon

>  <TGI>
> 100 µM

$$$$
>  <molecule>
CN(C)c1ccc(/C=C/c2ccnc3c(O)cccc23)cc1

>  <test.system>
KM12 colon

>  <TGI>
> 100 µM

$$$$
>  <molecule>
COc1ccc2c(c1)[n+]([O-])c(-c1ccc([N+](=O)[O-])cc1)c(N)[n+]2[O-]

>  <test.system>
KM12 colon

>  <TGI>
> 100 µM

$$$$
>  <molecule>
COc1ccc(NC(=S)N/N=C\c2ccc(NC(C)=O)cc2)cc1

>  <test.system>
KM12 colon

>  <TGI>
> 100 µM

$$$$
>  <molecule>
CC(C)N1CC2CN(Cc3ccccc3)CC(C1)C2=O

>  <test.system>
KM12 colon

>  <TGI>
> 100 µM

$$$$

* * *

Measured TGI of individual entries
Tested on: U251 CNS
Test: NCI tumour cell line growth inhibition, 48 h

>  <compound>
COC(=O)CCC(NC(=S)N/N=C/c1ccccn1)C(=O)OC (configuration not stated)

>  <TGI>
> 100 µM

$$$$
>  <compound>
C[n+]1c(/C=C/c2c[nH]c3ccccc23)ccc2ccccc21

>  <TGI>
22.5 µM

$$$$
>  <compound>
c1ccc(N2N=C(c3cccc(Nc4ccncc4)c3)CC2c2ccc3c(c2)OCO3)cc1 (configuration not stated)

>  <TGI>
3.74 µM

$$$$
>  <compound>
CCCCNc1nc2ccccc2c2c1ncn2CC(C)C

>  <TGI>
> 100 µM

$$$$
>  <compound>
COc1ccc(/C=N/NC(=O)c2sc(=S)n(-c3ccccc3)c2N)cc1

>  <TGI>
> 100 µM

$$$$
>  <compound>
CC1(C)N=C(N)N=C(N)N1c1ccc(CCCCc2ccccc2)c(Cl)c1

>  <TGI>
1.83 µM

$$$$
>  <compound>
O=C(O)CSC(CC1(c2ccc(Cl)cc2)NC(=O)CS1)c1ccc(Cl)cc1 (configuration not stated)

>  <TGI>
> 100 µM

$$$$
>  <compound>
CC(=O)OC(CN1CCN(c2ccccn2)CC1)Cn1sc2nc(C)cc(C)c2c1=O (configuration not stated)

>  <TGI>
32.1 µM

$$$$
>  <compound>
COc1ccc2c(c1)[n+]([O-])c(-c1ccc([N+](=O)[O-])cc1)c(N)[n+]2[O-]

>  <TGI>
> 100 µM

$$$$
>  <compound>
Nc1ccccc1Nc1ccccc1C(=O)[O-].Nc1ccccc1Nc1ccccc1C(=O)[O-].[Zn+2]

>  <TGI>
> 100 µM

$$$$
>  <compound>
CCN(CC)CCNc1ccc(C)c2sc3cc(Cl)ccc3c(=O)c12

>  <TGI>
3.22 µM

$$$$
>  <compound>
O=C(Cn1cc(-c2ccccc2)nn1)NC1CCCCC1

>  <TGI>
> 100 µM

$$$$
>  <compound>
CO/C=C/C(=O)c1cc2cnc3c(=N)cc(NC(=O)C(C)C)c([nH]1)c23

>  <TGI>
0.61 µM

$$$$
>  <compound>
CC1=Nc2ccccc2NC(c2ccoc2)C1 (configuration not stated)

>  <TGI>
> 100 µM

$$$$
>  <compound>
Cc1cc([N+](=O)[O-])ccc1Sc1c2ccccc2nc2cc(Cl)ccc12

>  <TGI>
80.7 µM

$$$$
>  <compound>
CC(C)N1CC2CN(Cc3ccccc3)CC(C1)C2=O

>  <TGI>
> 100 µM

$$$$
>  <compound>
O=C(O)CSCc1cc2c(O)c(c1)Cc1cc(CSCC(=O)O)cc(c1O)Cc1cc(CSCC(=O)O)cc(c1O)Cc1cc(CSCC(=O)O)cc(c1O)C2

>  <TGI>
> 100 µM

$$$$
>  <compound>
O=C1CC(c2c(-c3ccccc3)[nH]c3ccccc23)C(=O)N1 (configuration not stated)

>  <TGI>
> 100 µM

$$$$
>  <compound>
CCOP(=O)(OCC)C(C)(C)N(C)/C(F)=N/C(F)(F)F

>  <TGI>
> 100 µM

$$$$
>  <compound>
O=C1/C(=N\O)c2ccccc2S1(=O)=O

>  <TGI>
> 100 µM

$$$$
>  <compound>
CCOc1ccc2nc3nc(=O)[nH]c(C)c3c(NCCCN(CC)CC)c2c1

>  <TGI>
> 100 µM

$$$$
>  <compound>
CC1=C(O)c2cn(C)cc2C(=O)C1=O

>  <TGI>
> 100 µM

$$$$
>  <compound>
C=CC(=O)NCCSCCCOC1(C(=O)O)CC(O)C(NC(C)=O)C(C(O)C(O)CO)O1 (configuration not stated)

>  <TGI>
> 100 µM

$$$$
>  <compound>
COc1ccc(N=Cc2c(O)ccc3c2oc2cc(Cl)c(O)c(Cl)c23)cc1

>  <TGI>
34.9 µM

$$$$
>  <compound>
CC(=O)C1C(=O)C(=O)N(c2ccccc2)C1=O (configuration not stated)

>  <TGI>
> 100 µM

$$$$
>  <compound>
Nc1ccc2nc3c(nc2c1)C(=O)c1ccccc1-3

>  <TGI>
> 100 µM

$$$$
>  <compound>
COC(=O)[C@@H](C)C[C@H](Cc1cn(C)c2ccccc12)NC(=O)c1csc([C@@H](C[C@H](C(C)C)N(C)C(=O)[C@@H](NC(=O)[C@H]2CCCCN2C)C(C)C)OC(C)=O)n1

>  <TGI>
> 16.7 µM

$$$$
